particulars: 293.15 K; 100 kPa; Liquid; Vibrating tube method
# label = Yes if mass density >= 1000 kg/m3 else No

# input Hi team, for `CCCCCCCCCO` , is the recorded mass density at or above 1000 kg/m3?
# output No

# input Hi team, for `Cc1ccccc1Cl` , is the recorded mass density at or above 1000 kg/m3?
# output Yes

# input Hi team, for `Cc1cccc(Cl)c1` , is the recorded mass density at or above 1000 kg/m3?
# output Yes

# input Hi team, for `Cc1ccc(Cl)cc1` , is the recorded mass density at or above 1000 kg/m3?
# output Yes

# input Hi team, for `ClCCCl` , is the recorded mass density at or above 1000 kg/m3?
# output Yes

---

particulars: 293.15 K; 100 kPa; Liquid; Frequency=2 MHz; Linear variable-path acoustic interferometer
Kindly supply the reported speed of sound values for the records listed here.
Entry rule: numbers only, all in m/s.

# input What value of speed of sound has been recorded for this entry: `CCCCCCCCCO`
# output 1380.5

# input What value of speed of sound has been recorded for this entry: `Cc1cccc(Cl)c1`
# output 1313.8

# input What value of speed of sound has been recorded for this entry: `Cc1ccccc1Cl`
# output 1317

# input What value of speed of sound has been recorded for this entry: `ClCCCl`
# output 1212.5

# input What value of speed of sound has been recorded for this entry: `Cc1ccc(Cl)cc1`
# output 1306.4

---

particulars: 303.15 K; 100 kPa; Liquid; Vibrating tube method
Kindly supply the reported mass density values for the records listed here.
Entry rule: numbers only, all in kg/m3.

# input What value of mass density has been recorded for this entry: CCCCCCCCCO [nonan-1-ol]
# output 821

# input What value of mass density has been recorded for this entry: Cc1ccccc1Cl [2-chlorotoluene]
# output 1073

# input What value of mass density has been recorded for this entry: Cc1ccc(Cl)cc1 [4-chlorotoluene]
# output 1060

# input What value of mass density has been recorded for this entry: Cc1cccc(Cl)c1 [3-chlorotoluene]
# output 1063

# input What value of mass density has been recorded for this entry: ClCCCl [1,2-dichloroethane]
# output 1238

---

particulars: 308.15 K; 100 kPa; Liquid; Frequency=2 MHz; Linear variable-path acoustic interferometer
Kindly supply the reported speed of sound values for the records listed here.
Entry rule: numbers only, all in m/s.

# input What value of speed of sound has been recorded for this entry: `Cc1ccc(Cl)cc1`
# output 1252.1

# input What value of speed of sound has been recorded for this entry: `Cc1cccc(Cl)c1`
# output 1261.2

# input What value of speed of sound has been recorded for this entry: `Cc1ccccc1Cl`
# output 1265.8

# input What value of speed of sound has been recorded for this entry: `ClCCCl`
# output 1155.6

# input What value of speed of sound has been recorded for this entry: `CCCCCCCCCO`
# output 1330.5

---

Kindly supply the reported mass density values for the records listed here.
particulars: 308.15 K; 100 kPa; Liquid; Vibrating tube method
Entry rule: numbers only, all in kg/m3.

# input What value of mass density has been recorded for this entry: `Cc1cccc(Cl)c1`
# output 1058

# input What value of mass density has been recorded for this entry: `CCCCCCCCCO`
# output 818

# input What value of mass density has been recorded for this entry: `Cc1ccccc1Cl`
# output 1068

# input What value of mass density has been recorded for this entry: `ClCCCl`
# output 1231

# input What value of mass density has been recorded for this entry: `Cc1ccc(Cl)cc1`
# output 1054
